All figures here come from ChEMBL document CHEMBL5329212.

# System: Human immunodeficiency virus 1
# measurement protocol: Antiviral activity against HIV-1 harboring RT Y188L mutant infected in human MT4 cells assessed as protection against virus-induced cytopathic effect measured after 5 days by MTT assay
# Format: functional, organism-based
# condition parameters: Human immunodeficiency virus 1, MT4, 120 h
log10 of EC50 overview
Heads up: the numbers are on a log10 scale; they represent EC50 in µM.

// solved cases for log10 of EC50 follow
Cc1cc(C#N)cc(C)c1Oc1nc(Nc2ccc(-c3cn(Cc4ccc(S(N)(=O)=O)cc4)nn3)cc2)nc2ccsc12 = 0.51
Cc1cc(C#N)cc(C)c1Oc1nc(Nc2ccc(-c3cn(CC(=O)Nc4ccc(C(F)(F)F)cc4)nn3)cc2)nc2ccsc12 = 1.24
Cc1cc(C#N)cc(C)c1Oc1nc(Nc2ccc(-c3cn(Cc4ccc(S(C)(=O)=O)cc4)nn3)cc2)nc2ccsc12 = 2.09
COC(=O)c1cccc(-n2cc(-c3ccc(Nc4nc(Oc5c(C)cc(C#N)cc5C)c5sccc5n4)cc3)nn2)c1 = 1.77
Cc1cn([C@H]2C[C@H](N=[N+]=[N-])[C@@H](CO)O2)c(=O)[nH]c1=O = -1.52
O=C1Nc2ccc(Cl)cc2[C@@](C#CC2CC2)(C(F)(F)F)O1 = -0.37

Inquiry: State its log10 of EC50 for this compound: Cc1cc(C#N)cc(C)c1Oc1nc(Nc2ccc(-c3cn(S(=O)(=O)n4ccnc4)nn3)cc2)nc2ccsc12
Reply text: -0.60

Inquiry: State its log10 of EC50 for this compound: Cc1cc(C#N)cc(C)c1Oc1nc(Nc2ccc(-c3cn(Cc4ccc(C(F)(F)F)cc4)nn3)cc2)nc2ccsc12
Reply text: 0.49

---

# test system: UniProtKB Q72547
# measurement protocol: Inhibition of HIV-1 reverse transcriptase incubated for 1 hrs in presence of biotin-labeled dNTPs by ELISA assay
observable: IC50
# output: numeric value plus its unit

Cc1cc(C#N)cc(C)c1Oc1nc(Nc2ccc(-c3cn(CC(=O)Nc4ccc(C(F)(F)F)cc4)nn3)cc2)nc2ccsc12 = 2730 nM
Cc1cc(C#N)cc(C)c1Oc1nc(Nc2ccc(-c3cn(Cc4ccc(S(C)(=O)=O)cc4)nn3)cc2)nc2ccsc12 = 410 nM
Cc1cc(C#N)cc(C)c1Oc1nc(Nc2ccc(-c3cn(S(=O)(=O)n4ccnc4)nn3)cc2)nc2ccsc12 = 30 nM

Now turn to the next molecule.
Inquiry: State its IC50 for this molecule: Cc1cc(C#N)cc(C)c1Oc1nc(Nc2ccc(-c3cn(Cc4ccc(C(F)(F)F)cc4)nn3)cc2)nc2ccsc12
Reply text: 450 nM

---

EC50 overview
# System: Human immunodeficiency virus 1
# measurement protocol: Antiviral activity against HIV-1 harboring RT L100I mutant infected in human MT4 cells assessed as protection against virus-induced cytopathic effect measured after 5 days by MTT assay
# Format: functional, organism-based
# condition parameters: Human immunodeficiency virus 1, MT4, 120 h
Write the answer as a number in µM, unit excluded.

// solved cases for EC50 follow
CCOC(=O)c1ccc(Cn2cc(-c3ccc(Nc4nc(Oc5c(C)cc(C#N)cc5C)c5sccc5n4)cc3)nn2)cc1 = 34.8
Cc1cc(C#N)cc(C)c1Oc1nc(Nc2ccc(-c3cn(Cc4ccc(Cl)cc4)nn3)cc2)nc2ccsc12 = 73.2
Cc1cc(C#N)cc(C)c1Oc1nc(Nc2ccc(C#N)cc2)nc(N)c1Br = 0.01

Inquiry: Report value only: EC50, Human immunodeficiency virus 1, Cc1cc(C#N)cc(C)c1Oc1nc(Nc2ccc(-c3cn(CC(=O)Nc4ccc(C(F)(F)F)cc4)nn3)cc2)nc2ccsc12
Reply text: 2.5

Inquiry: Report value only: EC50, Human immunodeficiency virus 1, Cc1cc(C#N)cc(C)c1Oc1nc(Nc2ccc(-c3cn(S(=O)(=O)n4ccnc4)nn3)cc2)nc2ccsc12
Reply text: 0.08
